- Target Entity: T1, corticotropin-releasing hormone (CRH) peptide (human and mouse, UniProt P01143 145-185 (rat entry), not fully specified)
- T1 peptide: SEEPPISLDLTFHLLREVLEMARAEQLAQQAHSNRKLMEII
- Procedure Details: cell-based or functional assay
Parameter: hCRHR1-Luc 0.5 nM CRH IC50 (nM)

INSERT INTO measurements (binder, parameter, unit_label, value_observed) VALUES
  ('PR302341-9 (antibody, human IgG1, kappa, V domains shown) VH: QVQLVQSGAEVKKPGASVKVSCKASGYTFTDYFMKWVRQAPGQGLEWMGVINPNNGDIFYNQKFKGRVTMTVDKSTSTAYMELSSLRSEDTAVYYCARGTDRALFAYWGQGTLVTVSS VL: DIVMTQTPLSSPVTLGQPASISCRSGQSIVHSDGNTYLEWLQQRPGQPPRLLIYKVSNRFSGVPDRFSGSGAGTDFTLKISRVEAEDVGVYYCFQGSHIPWTFGGGTKVEIKR', 'hCRHR1-Luc 0.5 nM CRH IC50', 'nM', 0.234),
  ('PR302341-6 (antibody, human IgG1, kappa, V domains shown) VH: EVQLQQSGPELVKPGASVKMSCKASGYTFTDYFMKWVKQSHGESLEWIGVINPNNGDIFYNQKFKGKATLTVDKSSSTAFMQLNSLTSEDSAVYSCARGTDRALFAYWGQGTLVAVSA VL: DVVMTQTPLSLSVTPGQPASISCRSGQSIVHSDGNTYLEWYLQKPGQSPQLLIYKVSNRFSGVPDRFSGSGSGTDFTLKISRVEAEDLGVYYCFQGSHIPWTFGGGTKVEIKR', 'hCRHR1-Luc 0.5 nM CRH IC50', 'nM', 0.363),
  ('PR302341-1 (antibody, human IgG1, kappa, V domains shown) VH: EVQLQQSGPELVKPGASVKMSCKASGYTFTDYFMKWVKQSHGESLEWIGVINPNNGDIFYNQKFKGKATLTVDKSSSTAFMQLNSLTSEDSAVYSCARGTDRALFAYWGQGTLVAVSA VL: DVVMTQSPLSLPVTLGQPASISCRSGQSIVHSDGNTYLEWFQQRPGQSPRRLIYKVSNRFSGVPDRFSGSGSGTDFTLKISRVEAEDVGVYYCFQGSHIPWTFGGGTKVEIKR', 'hCRHR1-Luc 0.5 nM CRH IC50', 'nM', 0.397);
